# measuredOn: rat A1 receptors (Rattus norvegicus)
# Sequence (P25099 1-326): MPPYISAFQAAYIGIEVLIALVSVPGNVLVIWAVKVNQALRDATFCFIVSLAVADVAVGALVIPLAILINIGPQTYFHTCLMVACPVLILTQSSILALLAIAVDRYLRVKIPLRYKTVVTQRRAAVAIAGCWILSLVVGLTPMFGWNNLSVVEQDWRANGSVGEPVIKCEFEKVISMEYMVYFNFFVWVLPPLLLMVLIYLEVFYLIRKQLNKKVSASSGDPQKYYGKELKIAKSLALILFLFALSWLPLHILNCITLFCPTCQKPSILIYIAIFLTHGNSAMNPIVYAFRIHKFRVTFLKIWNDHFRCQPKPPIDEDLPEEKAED
assayEndpoint: pKi
FYI, pKi means -log10 of a concentration in mol per litre.

{"compound": "CCCn1c(=O)c2[nH]c(-c3ccc(OCC(=O)NN4C(=O)C5=C(CCC5)C4=O)cc3)nc2n(CCC)c1=O [Compound 19b]", "pKi": 7.38}
{"compound": "CCCn1c(=O)c2[nH]c(-c3ccc(OCC(=O)NN4C(=O)C[C@H](NC(=O)C(F)(F)F)C4=O)cc3)nc2n(CCC)c1=O [Compound 11]", "pKi": 7.13}

Let's switch to this compound now.
IN: Name the reported pKi value associated with the compound CCCn1c(=O)c2[nH]c(-c3ccc(OCC(=O)NNC(=O)[C@H](CCSC)NC(=O)OC(C)(C)C)cc3)nc2n(CCC)c1=O [Compound 26]
OUT: 6.95

====

rat A2A receptors (Rattus norvegicus) measurements of Ki, listed per entry.
Sequence (P30543 whole entry): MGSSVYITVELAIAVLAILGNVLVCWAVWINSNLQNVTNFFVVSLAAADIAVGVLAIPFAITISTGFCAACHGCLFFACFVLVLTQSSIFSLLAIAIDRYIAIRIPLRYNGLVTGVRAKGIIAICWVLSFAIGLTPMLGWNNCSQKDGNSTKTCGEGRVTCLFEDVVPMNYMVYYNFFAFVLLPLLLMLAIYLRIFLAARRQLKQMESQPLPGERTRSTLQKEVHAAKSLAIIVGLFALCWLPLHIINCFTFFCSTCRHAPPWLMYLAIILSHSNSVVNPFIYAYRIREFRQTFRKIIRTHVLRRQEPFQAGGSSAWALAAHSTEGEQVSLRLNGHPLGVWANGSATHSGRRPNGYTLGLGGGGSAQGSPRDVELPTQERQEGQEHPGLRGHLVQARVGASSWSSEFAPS
Express your answer in nM, writing the number without its unit.

Example cases with answers are listed next.
{"compound": "CCCn1c(=O)c2[nH]c(-c3ccc(OCC(=O)NNC(=O)CNC(=O)CNC(=O)OCc4ccccc4)cc3)nc2n(CCC)c1=O", "Ki (nM)": 609}
{"compound": "CCCn1c(=O)c2[nH]c(-c3ccc(OCC(=O)NN4C(=O)C5=C(CCCC5)C4=O)cc3)nc2n(CCC)c1=O [Compound 20b]", "Ki (nM)": 415}
{"compound": "CCCn1c(=O)c2[nH]c(-c3ccc(OCC(=O)NN4C(=O)C5=C(CCC5)C4=O)cc3)nc2n(CCC)c1=O [Compound 19b]", "Ki (nM)": 1160}
{"compound": "CCCn1c(=O)c2nc(-c3ccc(OCC(=O)NN)cc3)[nH]c2n(CCC)c1=O", "Ki (nM)": 63.8}
{"compound": "CCCn1c(=O)c2[nH]c(-c3ccc(OCC(=O)NNC(=O)C4CC=CCC4C(=O)O)cc3)nc2n(CCC)c1=O (stereo not shown) [Compound 18a]", "Ki (nM)": 813}
{"compound": "CCCn1c(=O)c2[nH]c(-c3ccc(OCC(=O)NN4C(=O)C(C)=C(C)C4=O)cc3)nc2n(CCC)c1=O", "Ki (nM)": 126}

Let's switch to this compound now.
IN: Name the reported Ki value associated with the compound CCCn1c(=O)c2[nH]c(-c3ccc(OCC(=O)NNC(=O)[C@H](CCC(=O)O)NC(=O)C(F)(F)F)cc3)nc2n(CCC)c1=O [Compound 24a]
OUT: 872

====

# measuredOn: human A2B receptors (Homo sapiens, UniProt P29275)
# Construct: expressed in transfected cells; host or cells: HEK-293
# Sequence (P29275 whole entry): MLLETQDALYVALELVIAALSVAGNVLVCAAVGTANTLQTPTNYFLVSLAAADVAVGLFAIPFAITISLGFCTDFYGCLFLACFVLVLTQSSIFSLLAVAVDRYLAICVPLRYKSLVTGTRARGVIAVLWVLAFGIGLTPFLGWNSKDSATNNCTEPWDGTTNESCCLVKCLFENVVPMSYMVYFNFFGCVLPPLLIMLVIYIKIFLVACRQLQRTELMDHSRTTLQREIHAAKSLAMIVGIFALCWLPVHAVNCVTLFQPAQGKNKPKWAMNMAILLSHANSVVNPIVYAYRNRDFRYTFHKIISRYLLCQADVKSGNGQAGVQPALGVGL
# assay: Binding at human A2B receptors expressed in HEK-293 cells vs [125I]-ABOPX
# conditionContext: read-out: Ki hA2B (converted)
assayEndpoint: Ki (nM)
Express your answer in nM, writing the number without its unit.

{"querySmiles": "CCCn1c(=O)c2[nH]c(-c3ccc(OCC(=O)NN4C(=O)C(C)=C(C)C4=O)cc3)nc2n(CCC)c1=O", "measuredOn": "human A2B receptors (Homo sapiens, UniProt P29275)", "Ki, nM": 33.8}

IN: Name the reported Ki value associated with the molecule `CCCn1c(=O)[nH]c(=O)c2[nH]c(-c3ccc(OCC(=O)NN4C(=O)C(C)=C(C)C4=O)cc3)nc21`
OUT: 1900

IN: Name the reported Ki value associated with the molecule `CCCn1c(=O)c2[nH]c(-c3ccc(OCC(=O)OCC)cc3)nc2n(CCC)c1=O`
OUT: 34.5

IN: Name the reported Ki value associated with the molecule `CCCn1c(=O)c2[nH]c(-c3ccc(OCC(=O)NNC(C)=O)cc3)nc2n(CCC)c1=O`
OUT: 33.8

IN: Name the reported Ki value associated with the molecule `CCCn1c(=O)c2[nH]c(-c3ccc(OCC(=O)NN4C(=O)c5ccccc5C4=O)cc3)nc2n(CCC)c1=O`
OUT: 46.4

IN: Name the reported Ki value associated with the molecule `CCCn1c(=O)c2[nH]c(-c3ccc(OCC(=O)NNC(=O)CCC(=O)O)cc3)nc2n(CCC)c1=O`
OUT: 97.8

====

# measuredOn: human A2B receptors (Homo sapiens, UniProt P29275)
# Construct: expressed in transfected cells; host or cells: HEK-293
# assay: Binding at human A2B receptors expressed in HEK-293 cells vs [3H]ZM241385
# conditionContext: ratio of Ki rat A1 to Ki human A2B
assayEndpoint: rA1/hA2B
Answer using only a numeral; do not append any unit.

Example cases with answers are listed next.
{"molecule": "CCCn1c(=O)c2[nH]c(-c3ccc(OCC(=O)NN4C(=O)C5CC=CCC5C4=O)cc3)nc2n(CCC)c1=O (centres unmarked) [Compound 18b]", "measuredOn": "human A2B receptors (Homo sapiens, UniProt P29275)", "rA1/hA2B": 3.6}
{"molecule": "CCCn1c(=O)c2[nH]c(-c3ccc(OCC(=O)NN4C(=O)C=C(c5ccccc5)C4=O)cc3)nc2n(CCC)c1=O [Compound 16]", "measuredOn": "human A2B receptors (Homo sapiens, UniProt P29275)", "rA1/hA2B": 3.4}
{"molecule": "CCCn1c(=O)c2[nH]c(-c3ccc(OCC(=O)NN4C(=O)CC[C@H](NC(=O)C(F)(F)F)C4=O)cc3)nc2n(CCC)c1=O [Compound 24b]", "measuredOn": "human A2B receptors (Homo sapiens, UniProt P29275)", "rA1/hA2B": 4.1}
{"molecule": "CCCn1c(=O)[nH]c(=O)c2[nH]c(-c3ccc(OCC(=O)NN4C(=O)C(C)=C(C)C4=O)cc3)nc21 [Compound 15]", "measuredOn": "human A2B receptors (Homo sapiens, UniProt P29275)", "rA1/hA2B": 2.0}
{"molecule": "CCCn1c(=O)c2[nH]c(-c3ccc(OCC(=O)NNC(=O)C4=C(C(=O)O)CCC4)cc3)nc2n(CCC)c1=O [Compound 19a]", "measuredOn": "human A2B receptors (Homo sapiens, UniProt P29275)", "rA1/hA2B": 1.0}

Let's switch to this molecule now.
IN: Name the reported rA1/hA2B value associated with the molecule CCCn1c(=O)c2[nH]c(-c3ccc(OCC(=O)NN4C(=O)C5=C(CCCC5)C4=O)cc3)nc2n(CCC)c1=O [Compound 20b]
OUT: 1.7

====

# measuredOn: human A3 receptors (Homo sapiens, UniProt P0DMS8)
# Construct: expressed in transfected cells; host or cells: HEK-293
# Sequence (P0DMS8 whole entry): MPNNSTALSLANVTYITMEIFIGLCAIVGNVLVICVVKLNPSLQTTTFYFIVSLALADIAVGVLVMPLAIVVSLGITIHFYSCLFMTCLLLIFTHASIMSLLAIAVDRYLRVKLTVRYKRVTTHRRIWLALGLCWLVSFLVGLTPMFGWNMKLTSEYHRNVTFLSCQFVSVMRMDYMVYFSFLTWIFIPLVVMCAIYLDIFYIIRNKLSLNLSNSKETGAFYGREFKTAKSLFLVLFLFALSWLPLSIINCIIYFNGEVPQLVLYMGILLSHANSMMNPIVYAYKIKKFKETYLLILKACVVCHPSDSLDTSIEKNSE
# assay: Binding at recombinant human A3 receptors expressed in HEK-293 cells vs [125I]ABA
# conditionContext: recombinant human A3 in HEK-293 cells, read-out: Ki hA3
Consider the following molecules and their measured log10(Ki) readings.
Lab note - Ki converted to log10 from values in nM.

Example cases with answers are listed next.
{"molecule": "CCCn1c(=O)c2[nH]c(-c3ccc(OCC(=O)NNC(=O)CCC(=O)O)cc3)nc2n(CCC)c1=O [Compound 9]", "val": 2.24}
{"molecule": "CCCn1c(=O)c2[nH]c(-c3ccc(OCC(=O)OCC)cc3)nc2n(CCC)c1=O [Compound 4b]", "val": 1.69}
{"molecule": "CCCn1c(=O)c2[nH]c(-c3ccc(OCC(=O)NNC(C)=O)cc3)nc2n(CCC)c1=O [Compound 4e]", "val": 1.49}
{"molecule": "CCCn1c(=O)[nH]c(=O)c2[nH]c(-c3ccc(OCC(=O)NN4C(=O)C(C)=C(C)C4=O)cc3)nc21 [Compound 15]", "val": 4.15}
{"molecule": "CCCn1c(=O)c2[nH]c(-c3ccc(OCC(=O)NN4C(=O)C(C)=C(C)C4=O)cc3)nc2n(CCC)c1=O [Compound 14]", "val": 2.83}

Let's switch to this molecule now.
IN: Name the reported log10(Ki) value associated with the molecule CCCn1c(=O)c2[nH]c(-c3ccc(OCC(=O)NN4C(=O)c5ccccc5C4=O)cc3)nc2n(CCC)c1=O [Compound 21]
OUT: 2.17

====

# measuredOn: human A2B receptors (Homo sapiens)
# Construct: expressed in transfected cells; host or cells: HEK-293
# assay: Binding at human A2B receptors expressed in HEK-293 cells vs [3H]ZM241385
# conditionContext: ratio of Ki rat A1 to Ki human A2B
assayEndpoint: rA1/hA2B
Answer using only a numeral; do not append any unit.

{"compound": "CCCn1c(=O)c2[nH]c(-c3ccc(OCC(=O)NN4C(=O)CCC4=O)cc3)nc2n(CCC)c1=O [Compound 10]", "rA1/hA2B": 3.0}

IN: Name the reported rA1/hA2B value associated with the compound CCCn1c(=O)c2[nH]c(-c3ccc(OCC(=O)NNC(=O)[C@H](CCC(=O)O)NC(=O)C(F)(F)F)cc3)nc2n(CCC)c1=O [Compound 24a]
OUT: 2.9

IN: Name the reported rA1/hA2B value associated with the compound CCCn1c(=O)c2[nH]c(-c3ccc(OCC(=O)NN4C(=O)CCCC4=O)cc3)nc2n(CCC)c1=O [Compound 22]
OUT: 0.6

IN: Name the reported rA1/hA2B value associated with the compound CCCn1c(=O)c2[nH]c(-c3ccc(OCC(=O)NNC(=O)[C@H](CCSC)NC(=O)OC(C)(C)C)cc3)nc2n(CCC)c1=O [Compound 26]
OUT: 2.8

IN: Name the reported rA1/hA2B value associated with the compound CCCn1c(=O)c2[nH]c(-c3ccc(OCC(=O)OCC)cc3)nc2n(CCC)c1=O [Compound 4b]
OUT: 2.8

IN: Name the reported rA1/hA2B value associated with the compound CCCn1c(=O)c2[nH]c(-c3ccc(OCC(=O)NNC(=O)CNC(=O)CNC(=O)OCc4ccccc4)cc3)nc2n(CCC)c1=O [Compound 27]
OUT: 3.3
